Measured Target: metalloprotease
Experiment: Metalloproteinase activity, azocasein (in vitro)
Assay type: biochemical, Rhynchophorus ferrugineus
Condition Description: fourth instar larvae midgut homogenate
So basically, if IC50 against metalloprotease (in vitro) comes in under 50 µg/mL it's yes, and if it's 50 µg/mL or more it's no.

| Compound | Measured Target | Class Assignment |
| --- | --- | --- |
| C[C@@H]1O[C@@H](OC[C@H]2O[C@@H](Oc3c(-c4ccc(O)c(O)c4)oc4cc(O)cc(O)c4c3=O)[C@H](O)[C@@H](O)[C@@H]2O)[C@H](O)[C@H](O)[C@H]1O [Quercetin-3-O-rutinoside] | metalloprotease | yes |
| O=C(O)C[C@H](C(=O)O)[C@@H](O)C(=O)O [Isocitric acid] | metalloprotease | no |
| O=C(/C=C/c1ccc(O)c(O)c1)O[C@H](Cc1ccc(O)c(O)c1)C(=O)O [Rosmarinic acid] | metalloprotease | yes |

Now examine the next entry.
Task item: Answer whether the compound C[C@H]1[C@H](C)CC[C@]2(C(=O)O)CC[C@]3(C)C(=CC[C@@H]4[C@@]5(C)CC[C@H](O)C(C)(C)[C@@H]5CC[C@]43C)[C@H]12 [Ursolic acid] has IC50 against metalloprotease (in vitro) strictly less than 50 µg/mL
Reply: no

###

Tested on: R. ferrugineus adults
Experiment: whole plant or invertebrate
Condition Description: Rhynchophorus ferrugineus
Property Name: LC50 (µg/mL)
State just the number; it will be interpreted in µg/mL.

// below: answered compounds
| Compound | LC50 / µg/mL |
| --- | --- |
| O=C(O)C[C@H](C(=O)O)[C@@H](O)C(=O)O | 1830 |
| COc1ccc(-c2cc(=O)c3c(O)c(OC)c(OC)cc3o2)cc1 [Salvigenin, 5-Hydroxy-6,7,4′-trimethoxyflavone] | 1190 |
| O=C(/C=C/c1ccc(O)c(O)c1)O[C@H](Cc1ccc(O)c(O)c1)C(=O)O | 1500 |
| O=C(/C=C/c1ccc(O)c(O)c1)O/C=C\c1ccc(O)c(O)c1 | 1320 |

Task item: Need LC50, item C[C@@H]1O[C@@H](OC[C@H]2O[C@@H](Oc3c(-c4ccc(O)c(O)c4)oc4cc(O)cc(O)c4c3=O)[C@H](O)[C@@H](O)[C@@H]2O)[C@H](O)[C@H](O)[C@H]1O [Quercetin-3-O-rutinoside]
Reply: 1210

###

Reported IC50 against trypsin-like serine proteinase (in vitro) values for the following compounds.
Measured Target: trypsin-like serine proteinase
Experiment: Serine proteinase microplate assay, BApNA (in vitro)
Assay type: biochemical, Rhynchophorus ferrugineus
Condition Description: fourth instar larvae midgut homogenate
State just the number; it will be interpreted in µg/mL.

| Compound | Endpoint Result |
| --- | --- |
| O=C(/C=C/c1ccc(O)c(O)c1)O/C=C\c1ccc(O)c(O)c1 | 86.7 |
| C[C@@H]1O[C@@H](OC[C@H]2O[C@@H](Oc3c(-c4ccc(O)c(O)c4)oc4cc(O)cc(O)c4c3=O)[C@H](O)[C@@H](O)[C@@H]2O)[C@H](O)[C@H](O)[C@H]1O [Quercetin-3-O-rutinoside] | 104.5 |
| O=C(/C=C/c1ccc(O)c(O)c1)O[C@H](Cc1ccc(O)c(O)c1)C(=O)O | 91.3 |
| C[C@H]1[C@H](C)CC[C@]2(C(=O)O)CC[C@]3(C)C(=CC[C@@H]4[C@@]5(C)CC[C@H](O)C(C)(C)[C@@H]5CC[C@]43C)[C@H]12 | 57.4 |

Shifting focus to the compound that follows.
Task item: Suppose we examine the compound COc1ccc(-c2cc(=O)c3c(O)c(OC)c(OC)cc3o2)cc1 [Salvigenin, 5-Hydroxy-6,7,4′-trimethoxyflavone] ; what IC50 against trypsin-like serine proteinase (in vitro) value has been reported?
Reply: 59.2

Data origin, for the record: paper PMC9027599
